# System: Hepatotoxicity
reported-endpoint: HepSE_hepatic failure
Number, no unit, nothing else.

compound	reported-endpoint	observed-measurement
NNC(=O)c1ccncc1	HepSE_hepatic failure	0
CN(C)CCOC(=O)C(c1ccccc1)C1(O)CCCC1 (centres undefined) [CYCLOPENTOLATE]	HepSE_hepatic failure	0
CC[N+](C)(C)Cc1ccccc1Br	HepSE_hepatic failure	0

Lookup: For the compound "Clc1ccc(CO/N=C(\Cn2ccnc2)c2ccc(Cl)cc2Cl)c(Cl)c1" , give its measured HepSE_hepatic failure value.
Found: 0

Lookup: Indicate the recorded HepSE_hepatic failure value for this compound: "CN(C)[C@@H]1C(O)=C(C(N)=O)C(=O)[C@@]2(O)C(O)=C3C(=O)c4c(O)cccc4[C@@](C)(O)[C@H]3C[C@@H]12"
Found: 1

Lookup: // fetch HepSE_hepatic failure given entry "Oc1ccc(OCc2ccccc2)cc1"
Found: 0

Lookup: Determine from records and report HepSE_hepatic failure for "O=P(O)(O)C(O)(Cc1cccnc1)P(=O)(O)O"
Found: 0

Lookup: Name the recorded HepSE_hepatic failure of the item CN1CC[C@]23c4c5ccc(O)c4O[C@H]2C(=O)CC[C@H]3[C@H]1C5 [HYDROMORPHONE] in your answer.
Found: 1

Lookup: Using known records, supply HepSE_hepatic failure for "CCS(=O)(=O)CCn1c([N+](=O)[O-])cnc1C"
Found: 0

###

System: Hepatotoxicity | Read-out: HepSE_cholelithiasis
Form: value (number only, do not type unit).

Reference set (5 entries):
molecule	reported-endpoint	observed-measurement
C=CCN1CC[C@]23c4c5ccc(O)c4O[C@H]2C(=O)CC[C@@]3(O)[C@H]1C5	HepSE_cholelithiasis	0
O=NN(CCCl)C(=O)NCCCl	HepSE_cholelithiasis	0
COc1ccnc(C[S+]([O-])c2nc3ccc(OC(F)F)cc3[nH]2)c1OC (stereo not drawn)	HepSE_cholelithiasis	1
CCc1cccc2c3c([nH]c12)C(CC)(CC(=O)O)OCC3 (stereo not drawn)	HepSE_cholelithiasis	0
CCNC(=O)[C@@H]1CCCN1C(=O)[C@H](CCCNC(=N)N)NC(=O)[C@H](CC(C)C)NC(=O)[C@@H](COC(C)(C)C)NC(=O)[C@H](Cc1ccc(O)cc1)NC(=O)[C@H](CO)NC(=O)[C@H](Cc1c[nH]c2ccccc12)NC(=O)[C@H](Cc1cnc[nH]1)NC(=O)[C@@H]1CCC(=O)N1	HepSE_cholelithiasis	0

Lookup: Consider the molecule CC(NC(C)(C)C)C(=O)c1cccc(Cl)c1 (stereo not drawn) and give its recorded HepSE_cholelithiasis.
Found: 0

Lookup: Fill in reported HepSE_cholelithiasis for this entry: "CS(=O)(=O)OCCCCOS(C)(=O)=O"
Found: 0

Lookup: // Input: CC(=O)/N=c1/sc(S(N)(=O)=O)nn1C [METHAZOLAMIDE] . Output its HepSE_cholelithiasis only.
Found: 0

###

Hepatotoxicity HepSE_Combined Scores data
Number only, no unit.

Reference set, count: 7
molecule	observed-measurement
Cc1ccsc1C(=CCCN1CCC[C@@H](C(=O)O)C1)c1sccc1C	4
Cc1cc2c(s1)Nc1ccccc1N=C2N1CCN(C)CC1	4
NCCS	0
COc1cccc2c1C(=O)c1c(O)c3c(c(O)c1C2=O)C[C@@](O)(C(C)=O)C[C@@H]3O[C@H]1C[C@H](N)[C@H](O)[C@H](C)O1	1
NC[C@H](O)c1ccc(O)c(O)c1 [NOREPINEPHRINE]	0
NCC[C@H](O)C(=O)N[C@@H]1C[C@H](N)[C@@H](O[C@H]2O[C@H](CN)[C@@H](O)[C@H](O)[C@H]2O)[C@H](O)[C@H]1O[C@H]1O[C@H](CO)[C@@H](O)[C@H](N)[C@H]1O	0
CCCCN1CCCCC1C(=O)Nc1c(C)cccc1C (stereo not drawn)	1

Lookup: State the measured HepSE_Combined Scores (Hepatotoxicity) of CC(C)(C)NC(=O)[C@H]1CC[C@H]2[C@@H]3CC[C@H]4NC(=O)C=C[C@]4(C)[C@H]3CC[C@]12C [FINASTERIDE]
Found: 0
